system.name: T1, Biotinylated human soluble TWEAK (amino acids 99-249 of SEQ ID NO: 68) (human, UniProt O43508 99-249, biotinylated)
T1 construct: also called Human TWEAK
T1 sequence: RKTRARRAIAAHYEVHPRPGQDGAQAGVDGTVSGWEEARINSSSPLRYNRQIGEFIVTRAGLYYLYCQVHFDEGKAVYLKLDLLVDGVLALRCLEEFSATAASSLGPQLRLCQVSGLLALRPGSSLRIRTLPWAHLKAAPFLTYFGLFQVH
test.summary: SPR (Biacore), biotinylated soluble TWEAK on streptavidin chip, 37 C
Listed here are binders together with their documented Biacore t/2 diss. [min] 37° C. human.
// return numeric value only (unit: min, not printed)

- binder: "Humanized <TWEAK> 305- antibody 28 (antibody, V domains shown) VH: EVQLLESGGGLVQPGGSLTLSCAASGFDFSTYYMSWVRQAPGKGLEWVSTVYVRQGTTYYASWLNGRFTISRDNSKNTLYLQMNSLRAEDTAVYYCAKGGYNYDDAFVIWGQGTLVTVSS VL: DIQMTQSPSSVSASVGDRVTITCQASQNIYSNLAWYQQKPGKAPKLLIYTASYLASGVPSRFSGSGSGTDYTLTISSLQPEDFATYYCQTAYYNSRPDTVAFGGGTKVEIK"
  units.text: "min"
  Biacore t/2 diss. [min] 37° C. human: 115
- binder: "Humanized <TWEAK> 305- antibody 29 (antibody, V domains shown) VH: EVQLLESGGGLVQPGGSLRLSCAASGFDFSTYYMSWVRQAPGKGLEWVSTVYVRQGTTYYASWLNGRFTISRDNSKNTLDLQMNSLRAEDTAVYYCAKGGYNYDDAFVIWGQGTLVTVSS VL: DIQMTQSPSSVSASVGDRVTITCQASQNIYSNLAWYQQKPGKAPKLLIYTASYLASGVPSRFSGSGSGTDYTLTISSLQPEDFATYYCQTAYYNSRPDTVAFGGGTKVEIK"
  units.text: "min"
  Biacore t/2 diss. [min] 37° C. human: 195
- binder: "Humanized <TWEAK> 305- antibody 27 (antibody, V domains shown) VH: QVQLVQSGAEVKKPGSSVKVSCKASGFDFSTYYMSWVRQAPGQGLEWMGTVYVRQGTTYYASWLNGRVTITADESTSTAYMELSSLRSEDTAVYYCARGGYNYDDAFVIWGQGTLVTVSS VL: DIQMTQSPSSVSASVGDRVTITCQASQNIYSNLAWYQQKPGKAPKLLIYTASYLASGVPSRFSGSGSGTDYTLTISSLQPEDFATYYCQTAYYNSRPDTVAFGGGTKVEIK"
  units.text: "min"
  Biacore t/2 diss. [min] 37° C. human: 147
- binder: "Humanized <TWEAK> 305- antibody 32 (antibody, V domains shown) VH: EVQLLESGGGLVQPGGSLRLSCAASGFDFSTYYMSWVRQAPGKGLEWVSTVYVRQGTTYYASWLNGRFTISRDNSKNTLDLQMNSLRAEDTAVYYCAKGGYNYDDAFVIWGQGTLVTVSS VL: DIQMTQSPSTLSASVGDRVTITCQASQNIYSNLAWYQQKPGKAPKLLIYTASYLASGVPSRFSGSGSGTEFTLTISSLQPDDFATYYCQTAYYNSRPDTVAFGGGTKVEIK"
  units.text: "min"
  Biacore t/2 diss. [min] 37° C. human: 50

# context switch: different binder, same Biacore t/2 diss. [min] 37° C. human
INPUT: Item Humanized <TWEAK> 305- antibody 31 (antibody, V domains shown) VH: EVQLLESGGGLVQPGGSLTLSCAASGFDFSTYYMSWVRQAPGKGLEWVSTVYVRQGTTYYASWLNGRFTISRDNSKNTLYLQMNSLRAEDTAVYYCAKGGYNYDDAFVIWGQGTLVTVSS VL: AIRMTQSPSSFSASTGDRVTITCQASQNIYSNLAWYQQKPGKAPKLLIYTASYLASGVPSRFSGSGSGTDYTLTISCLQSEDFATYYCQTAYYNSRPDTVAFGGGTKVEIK has what recorded Biacore t/2 diss. [min] 37° C. human?
OUTPUT: 151
